These measurements were taken from patent US20150045540A1.

- measurement-target: Hepatocyte Growth Factor (HGF), human (human, UniProt P14210 32-728)
- Sequence (P14210 32-728): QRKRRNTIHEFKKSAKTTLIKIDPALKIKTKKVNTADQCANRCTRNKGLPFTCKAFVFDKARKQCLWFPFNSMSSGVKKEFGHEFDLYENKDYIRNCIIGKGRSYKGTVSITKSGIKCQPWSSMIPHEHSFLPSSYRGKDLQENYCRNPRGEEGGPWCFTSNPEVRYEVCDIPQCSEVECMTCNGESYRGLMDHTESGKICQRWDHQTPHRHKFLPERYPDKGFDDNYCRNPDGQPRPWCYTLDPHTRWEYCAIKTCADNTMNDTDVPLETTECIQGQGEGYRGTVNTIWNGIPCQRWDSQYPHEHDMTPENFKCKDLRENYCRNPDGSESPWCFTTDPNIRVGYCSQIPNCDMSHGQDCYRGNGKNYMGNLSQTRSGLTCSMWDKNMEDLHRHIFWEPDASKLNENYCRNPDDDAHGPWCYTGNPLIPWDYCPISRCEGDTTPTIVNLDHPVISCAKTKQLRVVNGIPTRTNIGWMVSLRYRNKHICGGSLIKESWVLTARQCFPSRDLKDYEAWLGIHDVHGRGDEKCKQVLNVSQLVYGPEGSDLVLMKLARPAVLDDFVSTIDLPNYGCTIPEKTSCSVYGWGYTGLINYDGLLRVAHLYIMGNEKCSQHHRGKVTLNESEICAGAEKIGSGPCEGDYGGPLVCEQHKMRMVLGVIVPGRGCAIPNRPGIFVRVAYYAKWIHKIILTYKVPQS
- method: ELISA
endpoint-name: EC50 (pM)
// note: answer is a bare numeric in pM

Some solved entries appear below for comparison.
{"columns": ["binder", "EC50, pM"],
 "data": [
  ["HC 6/SLC 3 (antibody) chain 1: GQGTLVTVSSASTKGPQPVLHQPPAMSSALGTTIRLTCTLRNDHDIGVYSVYWYQQRPGHPPRFLLRYFSQSDKSQGPQVPPRFSGSKDVARNRGYLSISELQPEDEAMYYCAMGARSRCWPRGFQSKHNSVTHVFGSGTQLTVLSQPKATPSVTLFPPSSEELQANKATLVCLMNDFYPGILTVTWKADGTPITQGVEMTTPSKQSNNKYAASSYLSLTPEQWRSRRSYSCQVMHEGSTVEKTVAPAECS chain 2: MSWAPVLLMLFVYCTGCGPQPVLHQPPAMSSALGTTIRLTCTLRNDHDIGVYSVYWYQQRPGHPPRFLLRYFSQSDKSQGPQVPPRFSGSKDVARNRGYLSISVTHVFGSGTQLTVLSQPQVQLVQ", 69],
  ["HC 2/SLC 3 (antibody) chain 1: GQGTLVTVSSASQPVLHQPPAMSSALGTTIRLTCTLRNDHDIGVYSVYWYQQRPGHPPRFLLRYFSQSDKSQGPQVPPRFSGSKDVARNRGYLSISELQPEDEAMYYCAMGARSRCWPRGFQSKHNSVTHVFGSGTQLTVLSQPKATPSVTLFPPSSEELQANKATLVCLMNDFYPGILTVTWKADGTPITQGVEMTTPSKQSNNKYAASSYLSLTPEQWRSRRSYSCQVMHEGSTVEKTVAPAECS chain 2: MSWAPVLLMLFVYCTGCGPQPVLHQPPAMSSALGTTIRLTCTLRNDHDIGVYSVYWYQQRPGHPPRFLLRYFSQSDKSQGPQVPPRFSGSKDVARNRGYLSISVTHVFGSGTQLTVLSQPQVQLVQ", 58]
]}

Request: Which EC50 reading was recorded for the binder HC 10/SLC 15 (antibody) chain 1: GQGTLVTVSSASTKGPSVFPQPVLHQPPAMSSALGTTIRLTCTLRNDHDIGVYSVYWYQQRPGHPPRFLLRYFSQSDKSQGPQVPPRFSGSKDVARNRGYLSISELQPEDEAMYYCAMGARSRCWPRGFQSKHNSVTHVFGSGTQLTVLSQPKATPSVTLFPPSSEELQANKATLVCLMNDFYPGILTVTWKADGTPITQGVEMTTPSKQSNNKYAASSYLSLTPEQWRSRRSYSCQVMHEGSTVEKTVAPAECS chain 2: MSWAPVLLMLFVYCTGCGPQPVLHQPPAMSSALGTTIRLTCTLRNDHDIGVYSVYWYQQRPGHPPRFLLRYFSQSDKSQGPQVPPRFSGSKDVARNRGYLSISVTHVFGSGTQLTVLSQPKATPSVTGGGGSQVQLVQ ?
Result: 54
